molecular target: UniProt:P49682; experiment: 125I-CXCL10 competition radioligand binding assay; conditions: displacement of 125I-CXCL10 from membranes of CHO cells expressing human recombinant CXCR3-A;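 note: One-hour incubation of membranes with tracer, bound radioligand separated by glass fibre filtration, IC50 derived from four-parameter nonlinear fit of competition curves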
Sequence (P49682 whole entry): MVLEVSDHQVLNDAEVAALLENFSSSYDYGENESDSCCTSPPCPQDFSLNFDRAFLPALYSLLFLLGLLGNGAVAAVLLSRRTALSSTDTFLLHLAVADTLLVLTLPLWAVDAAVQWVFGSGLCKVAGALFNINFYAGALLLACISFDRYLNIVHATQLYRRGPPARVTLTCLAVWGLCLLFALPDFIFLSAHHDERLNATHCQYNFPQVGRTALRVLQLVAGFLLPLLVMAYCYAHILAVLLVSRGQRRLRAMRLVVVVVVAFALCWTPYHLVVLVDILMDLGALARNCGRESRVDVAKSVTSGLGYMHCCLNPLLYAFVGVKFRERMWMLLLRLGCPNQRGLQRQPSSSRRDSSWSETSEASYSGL
Where a name gives a salt, the structure may show the parent alone.
Mark each entry YES if its IC50 sits below 200 nM, and NO for all others.

Task: Just wondering, is IC50 of CCCN(Cc1ccc(OCCN2C(=O)CCC2=O)c(C)c1)C(CC(=O)O)c1ccc(Cl)c(Cl)c1 (centres unmarked) below 200 nM?
Output: YES

Task: Just wondering, is IC50 of O=C(O)CC(c1ccc(Cl)c(F)c1)N(Cc1ccc(OCCN2C(=O)CCC2=O)c(F)c1)CC1CCCC1 (centres unmarked) below 200 nM?
Output: NO

Task: Just wondering, is IC50 of CCCN(Cc1ccc(OCCN2C(=O)CCC2=O)c(Cl)c1)C(CC(=O)O)c1ccc(Cl)c(Cl)c1 (centres unmarked) below 200 nM?
Output: NO

Task: Just wondering, is IC50 of CCCCN(Cc1ccc(CCCN2C(=O)CCC2=O)c(C)c1)C(CC(=O)O)c1ccc2c(c1)CCO2 (centres unmarked) below 200 nM?
Output: NO

Task: Just wondering, is IC50 of CC(C)CN(Cc1ccc(OCCN2C(=O)CCC2=O)c(F)c1)[C@@H](CC(=O)O)c1ccc(Cl)c(F)c1 [Example 21, hydrochloride] below 200 nM?
Output: YES

Task: Just wondering, is IC50 of CN1CC(=O)N(CCOc2ccc(CN(CC3CCCC3)[C@H](CC(=O)O)c3ccc(Cl)cc3)cc2Cl)C1=O below 200 nM?
Output: NO

Task: Just wondering, is IC50 of COc1cc(CN(CC(C)C)C2c3ccc(Cl)cc3CC2C(=O)O)ccc1OCCN1C(=O)CCC1=O (centres unmarked) below 200 nM?
Output: NO

Task: Just wondering, is IC50 of CCCCN(Cc1ccc(OCCN2C(=O)CCC2=O)c(CC)c1)C(CC(=O)O)c1ccc(Cl)cc1 (centres unmarked) below 200 nM?
Output: YES

Task: Just wondering, is IC50 of CCN(Cc1ccc(OCCN2C(=O)CCC2=O)c(OC)c1)C(C(=O)O)c1ccc(Cl)cc1 (centres unmarked) below 200 nM?
Output: NO

Task: Just wondering, is IC50 of COc1cc(CN(CC2CCCC2)C(CC(=O)O)c2ccc(C)cc2)ccc1OCCN1C(=O)CCC1=O (centres unmarked) below 200 nM?
Output: YES

Task: Just wondering, is IC50 of COc1cc(CN(CC2CC2)C(CC(=O)O)c2ccc(Cl)cc2)ccc1OCCN1C(=O)CCC1=O (centres unmarked) below 200 nM?
Output: YES

Task: Just wondering, is IC50 of O=C(O)C[C@@H](c1ccc(Cl)cc1)N(Cc1ccc(OCCN2C(=O)CCC2=O)c(Cl)c1)CC1CCC1 below 200 nM?
Output: YES

Task: Just wondering, is IC50 of Cc1cc(CN(CC2CC2)C(CC(=O)O)c2ccc3c(c2)CCO3)ccc1CCCN1C(=O)CCC1=O (centres unmarked) below 200 nM?
Output: NO

Task: Just wondering, is IC50 of CCCCN(Cc1ccc(OCCN2C(=O)CCC2=O)c(C)c1)C(CC(=O)O)c1ccc(Cl)c(Cl)c1 (centres unmarked) below 200 nM?
Output: YES

Task: Just wondering, is IC50 of CCCN(Cc1ccc(OCCN2C(=O)CCC2=O)c(OC)c1)C(CC(=O)O)c1ccc(Cl)c(Cl)c1 (centres unmarked) below 200 nM?
Output: YES

Task: Just wondering, is IC50 of COc1cc(CN(CC2CCCCC2)C(CC(=O)O)c2ccc3c(c2)CCO3)ccc1OCCn1c(=O)ccn(C)c1=O (centres unmarked) below 200 nM?
Output: YES

Task: Just wondering, is IC50 of COc1cc(CN(Cc2ccc(F)cc2)C(CC(=O)O)c2ccc(Cl)cc2)ccc1OCCN1C(=O)CCC1=O (centres unmarked) [Example 165, hydrochloride] below 200 nM?
Output: YES

Task: Just wondering, is IC50 of O=C(O)CC(c1ccc(Cl)c(Cl)c1)N(Cc1ccc(OCCN2C(=O)CCC2=O)c(Cl)c1)CC1CC1 (centres unmarked) [Example 106, hydrochloride] below 200 nM?
Output: NO

Task: Just wondering, is IC50 of CCCN(Cc1ccc(OCCn2c(=O)ccn(C)c2=O)c(OC)c1)C(CC(=O)O)c1ccc(Cl)cc1Cl (centres unmarked) below 200 nM?
Output: NO

Task: Just wondering, is IC50 of CCCCN(Cc1ccc(OCCN2C(=O)CCC2=O)c(F)c1)C(CC(=O)O)c1ccc(Cl)cc1 (centres unmarked) below 200 nM?
Output: NO

Task: Just wondering, is IC50 of COc1cc(CN(CC2CCCC2)C(CC(=O)O)c2ccc(Cl)cc2)ccc1SCCN1C(=O)CCC1=O (centres unmarked) below 200 nM?
Output: YES

Task: Just wondering, is IC50 of CC(C)CN(Cc1ccc(OCCN2C(=O)CCC2=O)c(F)c1)[C@H](CC(=O)O)c1ccc(Cl)c(F)c1 [Example 22, hydrochloride] below 200 nM?
Output: NO

Task: Just wondering, is IC50 of Cc1cc(CN(C)C(c2ccc(Cl)cc2)C(C)C(=O)O)ccc1OCCN1C(=O)CCC1=O (centres unmarked) below 200 nM?
Output: NO

Task: Just wondering, is IC50 of Cc1cc(CN(CC2CC2)[C@@H](CC(=O)O)c2ccc(Cl)c(Cl)c2)ccc1OCCN1C(=O)CCC1=O below 200 nM?
Output: YES

Task: Just wondering, is IC50 of CCCCN(Cc1ccc(OCCN2C(=O)CCC2=O)c(OC)c1)C(CC(=O)O)c1ccc(Cl)c(F)c1 (centres unmarked) below 200 nM?
Output: YES

Task: Just wondering, is IC50 of COc1cc(CN(C)C(c2ccc(Cl)cc2)C(C)C(=O)O)ccc1OCCn1c(=O)ccn(C)c1=O (centres unmarked) below 200 nM?
Output: NO

Task: Just wondering, is IC50 of O=C(O)CC(c1ccc(Cl)cc1)N(Cc1ccc(OCCN2C(=O)CCC2=O)c(Cl)c1)CC1CC1 (centres unmarked) [Example 102, hydrochloride] below 200 nM?
Output: YES
